src = a melting point compilation (Tetko et al.; mined from patent text by program, amines drawn as free bases though some values may be those of a salt)

Recorded melting point for the following compounds

Use the examples below as a reference point.
What value of melting point has been recorded for this entry: C#CCOc1ccc(-c2nc3ccccc3o2)cc1
124 to 127 °C

What value of melting point has been recorded for this entry: Cc1[nH]c2cc(C(=O)c3ccccc3)ccc2c1C=O
192 to 196 °C

What value of melting point has been recorded for this entry: O=C(c1ccccc1Cl)c1cccnc1Br
76.3 °C

What value of melting point has been recorded for this entry: COc1nc2cc([N+](=O)[O-])cc(C)c2nc1OC
167 to 168 °C

Continuing:
What value of melting point has been recorded for this entry: CCCc1nc2c(N)nc3cc(Br)ccc3c2n1CC1CCN(C(=O)OC(C)(C)C)CC1
134 to 137 °C

What value of melting point has been recorded for this entry: Brc1ccc(C2=CCCC2)cc1
94 to 95 °C

What value of melting point has been recorded for this entry: O=C1Cc2cc(NC(=O)C(=O)N3CCC(Cc4cccc(F)c4)CC3)ccc2N1
182 to 184 °C

What value of melting point has been recorded for this entry: COC(=O)CN(c1ccccc1)c1ccc(OC)cc1C(=O)OC
85 to 87 °C

What value of melting point has been recorded for this entry: N#Cc1ccccc1N1CCN(CCC=C2c3ccccc3CCc3ccccc32)CC1
112 to 114 °C

What value of melting point has been recorded for this entry: CCCN1CCc2c(cccc2NC(=O)c2ccc(OC)cc2)C1
162 to 164 °C

What value of melting point has been recorded for this entry: CNC(=O)ON=Cc1nn(-c2c(Cl)cc(C(F)(F)F)cc2Cl)c(N)c1S(C)=O (stereo unspecified)
146 to 147 °C

What value of melting point has been recorded for this entry: CC(C)(COc1ccc(Cl)cc1)C(=O)C(CC1CCCCC1)n1cncn1 (stereo unspecified)
58 to 60 °C

---

Recorded melting point for the following compounds

Use the examples below as a reference point.
What value of melting point has been recorded for this entry: CCOc1cc(Cc2cnc(N)nc2N)cc(OCC)c1C(C)=O
229 to 231 °C

What value of melting point has been recorded for this entry: CCOc1nc(NCc2ccco2)nc(Oc2cccc(C(F)(F)F)c2)n1
97 to 99 °C

What value of melting point has been recorded for this entry: NC(=O)c1[nH]c2ccc(C(O)(C(F)(F)F)C(F)(F)F)cc2c1-c1ccccc1
220 to 224 °C

What value of melting point has been recorded for this entry: CC(NC(=O)Cc1cc(F)cc(F)c1)C(=O)NC1NC(=O)Cc2cc(F)ccc21 (stereo not given)
195 to 200 °C

What value of melting point has been recorded for this entry: O=Cc1c(F)cccc1Br
35 to 37 °C

Continuing:
What value of melting point has been recorded for this entry: CCCn1c(=O)c2[nH]c(/C=C/c3ccc(OC)cc3OC)nc2n(CCC)c1=O
273 to 274 °C

What value of melting point has been recorded for this entry: CC(C)ON=Cc1cc(-n2c(=O)cc(C(F)(F)F)n(C)c2=O)ccc1Cl
105 to 107 °C

What value of melting point has been recorded for this entry: CCCCC(O)c1nc2c(C(F)(F)F)cccc2c(O)c1C(=O)Nc1nccs1 (stereo not given)
190 °C

What value of melting point has been recorded for this entry: Cc1ccc([N+](=O)[O-])cc1Nc1ccc(C(F)(F)F)cn1
103 to 105 °C

What value of melting point has been recorded for this entry: CCn1c(C(=O)c2cc(C)cc(CCC#N)c2)c(C(C)C)c(=O)[nH]c1=O
173 to 174 °C

What value of melting point has been recorded for this entry: c1ccc(-c2ccc(-c3csc(Nc4cc5ccccc5cn4)n3)s2)nc1
246 to 248 °C

What value of melting point has been recorded for this entry: O=C(O)CCCCCCCCCCc1cccs1
41 to 42 °C

What value of melting point has been recorded for this entry: CC(=O)Oc1cc(OCc2ccccc2)cc(OC(C)=O)c1
129 to 130 °C

What value of melting point has been recorded for this entry: CCCCCOc1ccc(C=C2SC(=S)N(CC(=O)O)C2=O)cc1OCc1ccccc1
229 to 234 °C

What value of melting point has been recorded for this entry: O=C(O)Cc1c(C(=O)c2cccc(Cl)c2)[nH]c2ccc(Cl)cc12
243 to 247 °C

---

PARAMETER: melting point

Use the examples below as a reference point.
What value of melting point has been recorded for this entry: CCCCCCCCCCCCCCCC(=O)NO
100 to 101 °C

What value of melting point has been recorded for this entry: CCCCNC[C@@H](O)[C@H](Cc1ccccc1)NC(=O)OCc1ccccc1
118 to 120 °C

What value of melting point has been recorded for this entry: BrCC=Cc1ccc(-c2cnc(CSCCOc3ccccc3)o2)cc1
88 to 91 °C

Continuing:
What value of melting point has been recorded for this entry: Cc1ccc(C(=O)NC(NC(=O)Nc2ccccc2)C(Cl)(Cl)Cl)cc1 (configuration not stated)
230 to 233 °C

What value of melting point has been recorded for this entry: CCNc1nc(-c2ccc(NC(=O)NCc3cccnc3)cc2)ccc1C(=O)NC
260 to 263 °C

What value of melting point has been recorded for this entry: COC(=O)C(NC(=O)c1ccccc1)c1ccc(-c2ccc(S)cc2)cc1 (configuration not stated)
150 to 152 °C

What value of melting point has been recorded for this entry: CC1(c2ccc(O)cc2)C(=O)Nc2cc(Cl)cc(Cl)c2C1=O (configuration not stated)
222 to 223 °C

What value of melting point has been recorded for this entry: CC(Oc1ncn(-c2cccc(Cl)c2)n1)C(=O)O (configuration not stated)
197 to 199 °C

---

PARAMETER: melting point

What value of melting point has been recorded for this entry: CN1N=C(c2ccc(F)cc2)c2ccc(C#N)cc2CS1(=O)=O
284 to 285 °C

What value of melting point has been recorded for this entry: CCOC(=O)C(=CN(C)C)C(=O)c1cc2cc(F)c(Cl)cc2nc1Cl
122 °C

What value of melting point has been recorded for this entry: CC(=O)Nc1nc2c(Oc3cc(-c4ccc(C(F)(F)F)nc4NC4CCN(C(C)C)C4)ncn3)cccc2s1 (centres undefined)
140 to 141 °C

What value of melting point has been recorded for this entry: CCCCn1c(=O)c2c(NC)n(C)nc2n(Cc2ccccc2)c1=O
146 to 148 °C

What value of melting point has been recorded for this entry: Cc1ccccc1Oc1cccc2c1OC(=O)C2N1C(=O)c2ccccc2C1=O (centres undefined)
168 to 170 °C

What value of melting point has been recorded for this entry: Cc1ccc(O[C@H]2CCN(C(=O)OCc3ccccc3)C[C@H]2O)cc1C (relative stereo)
140 to 143 °C

What value of melting point has been recorded for this entry: CCN1C(=O)N(c2cc(Cl)cc(Cl)c2)C(=O)[C@]12CN(S(=O)(=O)c1cccc(C(=O)O)c1)C[C@H]2c1ccc(C#N)cc1 (relative stereo)
145 °C

What value of melting point has been recorded for this entry: CCN1CCC(=O)N(c2c(C)cccc2Cl)C1=S
141 to 144 °C

Continuing:
What value of melting point has been recorded for this entry: O=c1[nH]c2ccccc2n1CCNCc1ccc(CN2CCCCC2)o1
83 to 85 °C

---

Recorded melting point for the following molecules

Use the examples below as a reference point.
What value of melting point has been recorded for this entry: O=[N+]([O-])c1ccc(C(O)CSCc2ccncc2)cc1 (stereo not given)
135 to 137 °C

What value of melting point has been recorded for this entry: CCC(=O)Nc1c(C#N)cnn1-c1nc(NCc2ccccc2)c(C(F)(F)F)cc1Cl
139 to 142 °C

What value of melting point has been recorded for this entry: Cc1ccc(C2CCN(C(=O)CCC(=O)c3ccc4c(c3)CNCC4)CC2)cc1
119 to 120 °C

What value of melting point has been recorded for this entry: CN1CCN2CCNC2(c2ccccc2)c2cc(Cl)ccc21 (stereo not given)
100 to 102 °C

Consider the record given below.
What value of melting point has been recorded for this entry: COc1cc(OC)n2nc(NS(=O)(=O)c3c(Cl)cccc3Cl)nc2n1
211 to 213 °C

---

PARAMETER: melting point

What value of melting point has been recorded for this entry: COC(=O)CCc1cnoc1-c1ccc(Cl)c(Cl)c1
74 to 75 °C

What value of melting point has been recorded for this entry: Cc1nn(C)c(C#N)c1NC=O
135 °C

What value of melting point has been recorded for this entry: CCOC(CNC(=S)Nc1ccnn1C)OCC
148 to 149 °C

Continuing:
What value of melting point has been recorded for this entry: Cc1ccc(C)n1-c1cccc(C(=O)O)c1
148 to 150 °C

What value of melting point has been recorded for this entry: CN(C)S(=O)(=O)c1ccc(C(F)(F)F)cc1N
65 to 70 °C

What value of melting point has been recorded for this entry: O=C(O)c1cc(-c2ccnc(Nc3cccc(C(F)(F)F)c3)n2)ccn1
241 to 245 °C

What value of melting point has been recorded for this entry: CCCCNS(=O)(=O)CC(=O)[C@@H]1OC(C)(C)N(C(=O)OC(C)(C)C)[C@H]1CC1CCCCC1
70 to 73 °C

What value of melting point has been recorded for this entry: COC(=O)Cn1nnc(NC(=O)C(c2ccccc2)c2ccccc2)n1
168 to 169 °C

What value of melting point has been recorded for this entry: NOCC=Cc1ccc(Br)cc1
35 to 38 °C
